# assay_system: biotinylated recombinant ESO157/HLA-A*02:06 complex (human)
# assay_name: BLI (Octet QK), biotinylated pMHC on streptavidin sensor, BsAb 10 ug/mL
Quick reference for Kd among some binders

binder	output_unit	Kd
ESO157 BsAb #148 (anti-ESO157/HLA-A*02:01 scFv x anti-human CD3epsilon scFv, single chain) (bispecific antibody, V domains shown, not shown: small tags and cut ends) VH: EVQLVQSGAEVKKPGASVKVSCKASGGTFSSYAISWVRQAPGQGLEWMGGIIPIFGTANYAQKFQGRVTITADKSTSTAYMELSSLRSEDTAVYYCARSYWSWTPYDPWGQGTLVTVSS VL: LPVLTQPPSVSVAPGKTARITCGGNNIGSKSVHWYQQKPGQAPVLVIYYDSDRPSGIPERFSGSNSGNTATLTISRVEAGDEADYYCQVWDSSSDHYVFGTGTKVTVL	nM	224
ESO157 BsAb #76 (anti-ESO157/HLA-A*02:01 scFv x anti-human CD3epsilon scFv, single chain) (bispecific antibody) QSVVTQPPSLSGAPGQRVTISCNGSGSNIGAGYDVHWYQQLPGTAPKLLIYGNSNRPSGVPDRFSGSKSGTSASLAITGLQAEDEADYYCQSYDSSLSGWGIFGGGTKLTVLGSRGGGGSGGGGSGGGGSLEMAEVQLVQSGAEVKKPGSSVKVSCKASGGTFSSYAISWVRQAPGQGLEWMGGIIPIFGTANYAQKFQGRVTITADESTSTAYMELSSLRSEDTAVYYCARYDSYVYDEWGQGTLVTVSS	nM	126
ESO157 BsAb #116 (anti-ESO157/HLA-A*02:01 scFv x anti-human CD3epsilon scFv, single chain) (bispecific antibody) QSVLTQPPSVSAAPGQKVTISCSGSSSNIGNNYVSWYQQLPGTAPKLLIYDNNKRPSGIPDRFSGSKSGTSATLGITGLQTGDEADYYCGTWDSSLSAEVFGTGTKVTVLGSRGGGGSGGGGSGGGGSLEMAQVQLVQSGPEVKKPGASMKVSCKASGYTFTKYGISWVRQAPGQGLEWMGWISADSGKTSYAQNLQGRVSLTIDTSTATAYMELRSLRSDDTAVYYCARDDDSWGQGTLVTVSS	nM	0.8
